Measured values drawn from ChEMBL document CHEMBL6096689 for this set.

Readings of MIC for the listed compounds
# System: Staphylococcus aureus
# assay.details: microbe, parasite or virus in culture
# Type: functional
# condition.parameters: time 18 hrs
# Description: Antibacterial activity against multidrug-resistant Staphylococcus aureus clinical isolate XJ049 assessed as inhibition of visible growth of bacteria incubated for 18 hrs by absorbance based analysis

>  <compound>
CC[C@H]1OC(=O)[C@H](C)[C@@H](O[C@H]2C[C@@](C)(OC)[C@@H](O)[C@H](C)O2)[C@H](C)[C@@H](O[C@@H]2O[C@H](C)C[C@H](N(C)C)[C@H]2O)[C@](C)(O)C[C@@H](C)C(=O)[C@H](C)[C@@H](O)[C@]1(C)O [ERYTHROMYCIN]

>  <prefix.operator>
>

>  <MIC [µg/mL]>
128

$$$$
>  <compound>
O=C1C2=C(CCN(Cc3ccccc3)C2)N2CCN=C2N1Cc1ccc(C(F)(F)F)cc1

>  <prefix.operator>
=

>  <MIC [µg/mL]>
0.5

$$$$
>  <compound>
CCn1cc(C(=O)O)c(=O)c2cc(F)c(N3CCNCC3)cc21 [NORFLOXACIN]

>  <prefix.operator>
>

>  <MIC [µg/mL]>
128

$$$$
>  <compound>
CC[C@H](C)[C@H]1C(=O)N(Cc2ccc(OC)c3ccccc23)C[C@@H]2N(C(=O)NCCCC(F)(F)F)CCC(=O)N12

>  <prefix.operator>
=

>  <MIC [µg/mL]>
0.13

$$$$
>  <compound>
CN[C@@H]1[C@@H](O)[C@@H](O[C@@H]2[C@@H](O)[C@H](O[C@H]3O[C@H](CN)CC[C@H]3N)[C@@H](N)C[C@H]2N)OC[C@]1(C)O [GENTAMICIN C1A]

>  <prefix.operator>
=

>  <MIC [µg/mL]>
128

$$$$
>  <compound>
CC[C@H](C)[C@H]1C(=O)N([C@H](C)c2cccc3ccccc23)C[C@@H]2N(C(=O)NCCCC(F)(F)F)CCC(=O)N12

>  <prefix.operator>
=

>  <MIC [µg/mL]>
2

$$$$
